Test system: rats
Assay: 14-day immobilization in antiorthostatic position (Ds), thymus, spleen, adrenal mass ratios Kt
Format: in vivo
Conditions: Ds-conditions, 200 mg/kg; spleen/thymus ratio (mg/100 g baseline body weight)
Hi there, I'd appreciate the recorded S/T for every entry that follows.
Field format: numeric only.

What does the data say about its S/T? Entry: NC(=O)CN1CC(c2ccccc2)CC1=O (stereo not drawn) [Fepiron (+)]
5.4

What does the data say about its S/T? Entry: O=C1CC(c2ccccc2)CN1 (racemic) [Fepiron, 4(R,S)-feniilpirrolidin-2-one]
9.5

What does the data say about its S/T? Entry: NC(=O)CN1CC(c2ccccc2)CC1=O (stereo not drawn) [Fepiron (−)]
4.9

What does the data say about its S/T? Entry: NC(=O)CN1CCCC1=O
7.4

###

Experiment: Distribution by internal organs after oral administration (GLC)
Format: in vivo
Settings: both sexes, outbred white, rat, liver, po; rats; 100 mg/kg orally; 8.00 h; read-out: Contents of Phenotropil in liver
reported property: concentration at 8 h (ng/g)
State just the number; it will be interpreted in ng/g.

What does the data say about its concentration at 8 h? Entry: NC(=O)CN1CC(c2ccccc2)CC1=O (racemic)
11400

###

Test: Distribution by internal organs after oral administration (GLC)
Format: in vivo
Conditions: both sexes, outbred white, rat, liver, po; rats; 100 mg/kg orally; 4.00 h; read-out: Contents of Phenotropil in liver
reported property: concentration at 4 h (ng/g)
State just the number; it will be interpreted in ng/g.

What does the data say about its concentration at 4 h? Entry: NC(=O)CN1CC(c2ccccc2)CC1=O (racemic) [Compound 1]
30200

###

Test: Acute toxicity, single intraperitoneal injection in male mice
Format: in vivo
Conditions: male, white outbred, mouse, in vivo, ip, male mice 18-24 g; single i.p.
reported property: LD50 at 14 days (mg/kg)
State just the number; it will be interpreted in mg/kg.

What does the data say about its LD50 at 14 days? Entry: NC(=O)CN1CC(c2ccccc2)CC1=O (racemic)
1000

###

Assay: Distribution by internal organs after oral administration (GLC)
Assay type: in vivo
Settings: both sexes, outbred white, rat, heart, po; rats; 100 mg/kg orally; 0.25 h; read-out: Contents of Phenotropil in heart
reported property: concentration at 0.25 h (ng/g)
State just the number; it will be interpreted in ng/g.

What does the data say about its concentration at 0.25 h? Entry: NC(=O)CN1CC(c2ccccc2)CC1=O (racemic) [Compound 1]
3700

###

Assay: Distribution by internal organs after oral administration (GLC)
Type: in vivo
Settings: both sexes, outbred white, rat, kidney, po; rats; 100 mg/kg orally; 0.50 h; read-out: Contents of Phenotropil in kidney
reported property: concentration at 0.5 h (ng/g)
State just the number; it will be interpreted in ng/g.

What does the data say about its concentration at 0.5 h? Entry: NC(=O)CN1CC(c2ccccc2)CC1=O (racemic) [Compound 1]
37500

###

Test: Distribution by internal organs after oral administration (GLC)
Type: in vivo
Settings: both sexes, outbred white, rat, kidney, po; rats; 100 mg/kg orally; 6.00 h; read-out: Contents of Phenotropil in kidney
reported property: concentration at 6 h (ng/g)
State just the number; it will be interpreted in ng/g.

What does the data say about its concentration at 6 h? Entry: NC(=O)CN1CC(c2ccccc2)CC1=O (racemic)
16000
